Molecular target: OATP1B1 (Homo sapiens)
Sequence (Q9Y6L6 1-691): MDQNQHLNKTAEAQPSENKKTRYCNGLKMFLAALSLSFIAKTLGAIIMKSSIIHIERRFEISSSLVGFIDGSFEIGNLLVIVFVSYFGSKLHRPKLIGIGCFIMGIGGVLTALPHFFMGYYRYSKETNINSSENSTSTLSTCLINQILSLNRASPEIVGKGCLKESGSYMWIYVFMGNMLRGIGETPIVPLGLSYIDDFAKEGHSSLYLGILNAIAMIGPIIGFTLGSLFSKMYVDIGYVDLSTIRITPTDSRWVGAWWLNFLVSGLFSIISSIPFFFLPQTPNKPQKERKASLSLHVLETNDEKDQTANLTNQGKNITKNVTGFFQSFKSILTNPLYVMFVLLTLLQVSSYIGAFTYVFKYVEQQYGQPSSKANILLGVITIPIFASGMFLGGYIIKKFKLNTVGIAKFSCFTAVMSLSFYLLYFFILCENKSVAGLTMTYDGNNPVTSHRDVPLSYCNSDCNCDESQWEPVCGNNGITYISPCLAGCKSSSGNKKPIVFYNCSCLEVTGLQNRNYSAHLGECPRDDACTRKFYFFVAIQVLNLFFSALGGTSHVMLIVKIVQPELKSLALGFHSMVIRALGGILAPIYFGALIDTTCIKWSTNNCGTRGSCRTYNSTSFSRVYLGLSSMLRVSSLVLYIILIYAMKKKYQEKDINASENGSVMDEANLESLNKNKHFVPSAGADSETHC
So I've got a bunch of compounds here, and I need their Ki values.
Numbers only, in µM.

C[C@H](CCC(=O)NCC(=O)O)[C@H]1CC[C@H]2[C@@H]3[C@H](O)C[C@@H]4C[C@@H](F)CC[C@]4(C)[C@H]3C[C@H](O)[C@]12C [3βFGCA, 3β F glycocholic acid]	4.24
C[C@H](CCC(=O)O)[C@H]1CC[C@H]2[C@@H]3[C@H](O)C[C@@H]4C[C@H](F)CC[C@]4(C)[C@H]3C[C@H](O)[C@]12C [3αFCA, 3α-fluorocholic acid]	5.22
C[C@H](CCC(=O)O)[C@H]1CC[C@H]2[C@@H]3[C@H](O)C[C@@H]4C[C@@H](F)CC[C@]4(C)[C@H]3CC[C@]12C [3βFCDCA]	0.64

Shift focus to the following entry.
Recorded result, C[C@H](CCC(=O)O)[C@H]1CC[C@H]2[C@@H]3[C@H](O)C[C@@H]4C[C@H](O)CC[C@]4(C)[C@H]3C[C@@H](F)[C@]12C [12βFCA] , Ki: 4.56

Where these numbers come from: paper PMC5941726
